- Tgt: HLA-A*02:01
- Protocol: IEDB peptide-MHC binding, purified MHC/direct/fluorescence; filed as Kd, often an IC50 or EC50 that approximates it; bounds were set here for any values at or beyond the usual limits of such assays
- Protocol conditions: source organism: Escherichia coli
Measured parameter: pKd
Formally, pKd is defined as -log10 of the concentration c, with c in mol/L.

Query LMQWWSDYV yields pKd of 8.24

====

sequences and their reported Kd
- Tgt: HLA-B*46:01
- Protocol: IEDB peptide-MHC binding, purified MHC/direct/fluorescence; filed as Kd, often an IC50 or EC50 that approximates it; bounds were set here for any values at or beyond the usual limits of such assays
- Protocol conditions: source organism: Mammarenavirus juninense

Query GKLDPTNTL yields Kd of ≥ 20 µM

Query YAKKFKTGM yields Kd of ≥ 20 µM

====

- Tgt: HLA-A*30:01
- Protocol: IEDB peptide-MHC binding, purified MHC/competitive/radioactivity; filed as Kd, often an IC50 or EC50 that approximates it; bounds were set here for any values at or beyond the usual limits of such assays
- Protocol conditions: source organism: Vaccinia virus Copenhagen
Measured parameter: Kd (nM)
Please state the figure in nM; there is no need to write the unit.

Query RVKQISIST yields Kd of 0.369

====

- Tgt: HLA-B*07:02
- Protocol: IEDB peptide-MHC binding, purified MHC/direct/fluorescence; filed as Kd, often an IC50 or EC50 that approximates it; bounds were set here for any values at or beyond the usual limits of such assays
- Protocol conditions: source organism: Human herpesvirus 4 strain B95-8
Measured parameter: pKd
Formally, pKd is defined as -log10 of the concentration c, with c in mol/L.

Query RPPIFIRRL yields pKd of 6.45

====

- Tgt: HLA-A*26:02
- Protocol: IEDB peptide-MHC binding, purified MHC/direct/fluorescence; filed as Kd, often an IC50 or EC50 that approximates it; bounds were set here for any values at or beyond the usual limits of such assays
- Protocol conditions: source organism: Giardia lamblia ATCC 50803
Measured parameter: Kd (nM)
Please state the figure in nM; there is no need to write the unit.

Query YSAEALLPY yields Kd of 3

====

- Tgt: HLA-B*46:01
- Protocol: IEDB peptide-MHC binding, purified MHC/direct/fluorescence; filed as Kd, often an IC50 or EC50 that approximates it; bounds were set here for any values at or beyond the usual limits of such assays
- Protocol conditions: source organism: Orthohantavirus andesense
pKd: −log10 of the molar value.
Measured parameter: pKd

Query EKLKKKSAF yields pKd of ≤ 4.70

====

sequences and their reported Kd
- Tgt: HLA-A*31:01
- Protocol: IEDB peptide-MHC binding, purified MHC/competitive/radioactivity; filed as Kd, often an IC50 or EC50 that approximates it; bounds were set here for any values at or beyond the usual limits of such assays
- Protocol conditions: source organism: Mammarenavirus whitewaterense
Please state the figure in nM; there is no need to write the unit.

# example entries with known answers
Sequence text	Measured parameter	Quantitative result
SRIFEELVWK	Kd	3640
TAIAKCNLDH	Kd	929

For the next question, use this sequence.
Query KIGHHVELQH yields Kd of 25.2

====

- Tgt: HLA-B*39:01
- Protocol: IEDB peptide-MHC binding, purified MHC/competitive/fluorescence; filed as Kd, often an IC50 or EC50 that approximates it; bounds were set here for any values at or beyond the usual limits of such assays
- Protocol conditions: source organism: Human immunodeficiency virus 1
Measured parameter: Kd

Query LNTVATLY yields Kd of ≥ 20 µM
